- System: HepaRG cells
- test: Incubations with HepaRG cells, metabolite identification by LC-HRMS/MS
- Assay type: in vitro ADME, human
- applied conditions: 25 μM parent NPS, 24 h, cell culture medium, one replicate of n = 3; n.d. = not detected
Consider the following compounds and their measured Absolute peak area, HepaRG [25 μM] readings.
Output spec: single numeric token, no unit.

[Q] Looking for the measured Absolute peak area, HepaRG [25 μM] of CC(C)(C)[C@H](NC(=O)c1n[nH]c2ccccc12)C(=O)O [MB3] , can you help?
[A] 3.99E+05

[Q] I'd like to know its Absolute peak area, HepaRG [25 μM]. The compound in question is CCCC(NCC)C(=O)c1ccc2c(c1)OCO2 (stereo not drawn) [Ephylone, N-ethylnorpentylone]
[A] 6.38E+08

[Q] Would you mind telling me what Absolute peak area, HepaRG [25 μM] value was observed for CCN(CC)C(=O)[C@@H]1C=C2c3cccc4c3C(O)(C[C@H]2N(C)C1)C(=O)N4 (stereo partly drawn) [ML18, 2−oxo−3−hydroxy LSD] ?
[A] 7.00E+06

[Q] Item CN1C[C@H](C(=O)O)C=C2c3cccc4[nH]cc(c34)C[C@H]21 [ML2] has what recorded Absolute peak area, HepaRG [25 μM]?
[A] 5.16E+06

[Q] I have this compound here, CCCC(N)C(=O)c1ccc2c(c1)OCO2 (stereo not drawn) [ME1] , and I need its recorded Absolute peak area, HepaRG [25 μM].
[A] 4.14E+06

[Q] Name the recorded Absolute peak area, HepaRG [25 μM] for CC(C)(C)[C@H](NC(=O)c1nn(CCCCO)c2ccccc12)C(=O)O [MB7] .
[A] 1.25E+06

====

- measured target: CYP2C8 (Homo sapiens, UniProt P10632)
- Construct: purchased Corning; host or cells: baculovirus-transfected insect cell microsomes (Supersomes)
- Sequence (P10632 whole entry): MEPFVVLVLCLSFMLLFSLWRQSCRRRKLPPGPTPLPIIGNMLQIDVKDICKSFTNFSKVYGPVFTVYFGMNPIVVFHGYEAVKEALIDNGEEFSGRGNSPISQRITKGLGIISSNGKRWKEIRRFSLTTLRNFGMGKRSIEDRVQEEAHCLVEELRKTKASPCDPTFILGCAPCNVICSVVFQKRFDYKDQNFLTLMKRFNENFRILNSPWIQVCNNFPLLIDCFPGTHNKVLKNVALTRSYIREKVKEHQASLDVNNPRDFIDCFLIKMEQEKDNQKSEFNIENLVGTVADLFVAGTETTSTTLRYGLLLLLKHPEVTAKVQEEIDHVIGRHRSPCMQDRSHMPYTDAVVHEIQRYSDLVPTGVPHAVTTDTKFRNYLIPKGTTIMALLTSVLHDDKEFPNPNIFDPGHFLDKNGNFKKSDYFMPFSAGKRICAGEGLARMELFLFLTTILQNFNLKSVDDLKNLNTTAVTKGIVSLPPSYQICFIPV
- test: Monooxygenases activity screening, CYP2C8
- Type: in vitro ADME
- Parameters: key: +, detected; –: −, not detected
- applied conditions: 25 μM 4F-MDMB-BINACA, 50 pmol/ml enzyme, 30 min, 37°C, duplicate
experimental readout: Detection of metabolite in incubation with CYP2C8

Before answering, review these 4 worked examples.
COC(=O)[C@@H](NC(=O)c1nn(CCCCO)c2ccccc12)C(C)(C)C [MB11]    +
O=C(O)c1nn(CCCCF)c2ccccc12 [MB1]    –
COC(=O)[C@@H](NC(=O)c1n[nH]c2ccccc12)C(C)(C)C [MB4]    –
COC(=O)[C@@H](NC(=O)c1nn(CCCCF)c2ccccc12)C(C)(C)CO [MB16]    –

Could you now look at the following compound, please?
[Q] I am curious: what Detection of metabolite in incubation with CYP2C8 value has been reported for CC(C)(C)C(NC(=O)c1nn(CCCCF)c2ccccc12)C(=O)O (centres unmarked) [MB8] ?
[A] –

====

Each entry below carries its recorded Absolute peak area, Zebrafish larvae [25 μM].
- System: zebrafish larvae
- test: Zebrafish larvae exposure, metabolite identification by LC-HRMS/MS
- applied conditions: 25 μM 4F-MDMB-BINACA in medium, larvae 4 dpf, 24 h, larvae extract, one replicate of n = 3; n.d. = not detected

Worked cases, answers included:
CC(C)(CO)C(NC(=O)c1nn(CCCCF)c2ccccc12)C(=O)O (stereo not shown)    4.57E+05
COC(=O)[C@@H](NC(=O)c1nn(CCCCO)c2ccccc12)C(C)(C)C    2.92E+06
COC(=O)C(NC(=O)c1nn(CCCCF)c2ccccc12)C(C)(C)COC1OC(C(=O)O)C(O)C(O)C1O (stereo not shown)    1.75E+07
COC(=O)[C@@H](NC(=O)c1nn(CCCC(=O)O)c2ccccc12)C(C)(C)C    2.60E+07
CC1(C)COC(=O)C1NC(=O)c1nn(CCCCO)c2ccccc12 (stereo not shown)    9.42E+05
CC(C)(C)[C@H](NC(=O)c1nn(CCCCO)c2ccccc12)C(=O)O    5.96E+04
CC(C)(C)[C@H](NC(=O)c1nn(CCCC(=O)O)c2ccccc12)C(=O)O    5.72E+04
CC1(C)COC(=O)[C@H]1NC(=O)c1n[nH]c2ccccc12    5.13E+05

[Q] For COC(=O)C(NC(=O)c1nn(CCCC(=O)OC2OC(C(=O)O)C(O)C(O)C2O)c2ccccc12)C(C)(C)C (stereo not shown) , what is its reported Absolute peak area, Zebrafish larvae [25 μM]?
[A] 2.34E+05

[Q] Given COC(=O)C(NC(=O)c1nn(CCCCF)c2ccccc12)C(C)(C)C (stereo not shown) , state its recorded Absolute peak area, Zebrafish larvae [25 μM].
[A] 2.89E+09
